From: patent US20220380801A1

# studyTarget: HCV NS3/4A PR (S139A) (Hepatitis C virus subtype 1a, UniProt A8DG50, A1066T/I1043Q/I1044E/L1039E/L1040E/L1047Q/S1165A, form not given)
# experimentalDetails: Biacore 8K binding kinetics of PRSIM binding molecules
# conditionDetails: 10 nM simeprevir present
# kd per record follows
Report as a plain number; the unit s⁻¹ is understood.

- PRSIM_32: Tn3 PRSIM binding molecule, SEQ ID NO: 6 (protein, PRSIM_32) RLDAPSQIEVKDVTDTTALITWWSPRYYYASISGFELTYGIKDVPGDRTTIKLDYASNDYSIGNLKPDTEYEVSLISWNYGDWRYSSSNPAKITFKTGL: 40.1

From here, focus on the item given below.
Any idea what its kd is? The molecule is PRSIM_04: scFv PRSIM binding molecule, SEQ ID NO: 11 (protein, PRSIM_04) scFv: QVQLVQSGAEVKKPGSSVKVSCKASGGTFSSYAISWVRQAPGQGLEWMGGIIPIFGTANYAQKFQGRVTITADESTSTAYMELSSLRSEDTAVYYCARGMAHFYQFDLWGQGTLVTVSSGGGGSGGGGSGGGGSAQSVLTQPPSASGTPGQRVTISCSGSSSNIGSNTVNWYQQLPGTAPKLLIYSNNQRPSGVPDRFSGSKSGTSASLAISGLQSEDEADYYCAAGDHDHEHVVFGGGTKLTVL
0.195
